Biological target: NMDA NR1/NR2B receptor (Homo sapiens (Human))
Sequence (Q13224 27-1484, other chains not shown): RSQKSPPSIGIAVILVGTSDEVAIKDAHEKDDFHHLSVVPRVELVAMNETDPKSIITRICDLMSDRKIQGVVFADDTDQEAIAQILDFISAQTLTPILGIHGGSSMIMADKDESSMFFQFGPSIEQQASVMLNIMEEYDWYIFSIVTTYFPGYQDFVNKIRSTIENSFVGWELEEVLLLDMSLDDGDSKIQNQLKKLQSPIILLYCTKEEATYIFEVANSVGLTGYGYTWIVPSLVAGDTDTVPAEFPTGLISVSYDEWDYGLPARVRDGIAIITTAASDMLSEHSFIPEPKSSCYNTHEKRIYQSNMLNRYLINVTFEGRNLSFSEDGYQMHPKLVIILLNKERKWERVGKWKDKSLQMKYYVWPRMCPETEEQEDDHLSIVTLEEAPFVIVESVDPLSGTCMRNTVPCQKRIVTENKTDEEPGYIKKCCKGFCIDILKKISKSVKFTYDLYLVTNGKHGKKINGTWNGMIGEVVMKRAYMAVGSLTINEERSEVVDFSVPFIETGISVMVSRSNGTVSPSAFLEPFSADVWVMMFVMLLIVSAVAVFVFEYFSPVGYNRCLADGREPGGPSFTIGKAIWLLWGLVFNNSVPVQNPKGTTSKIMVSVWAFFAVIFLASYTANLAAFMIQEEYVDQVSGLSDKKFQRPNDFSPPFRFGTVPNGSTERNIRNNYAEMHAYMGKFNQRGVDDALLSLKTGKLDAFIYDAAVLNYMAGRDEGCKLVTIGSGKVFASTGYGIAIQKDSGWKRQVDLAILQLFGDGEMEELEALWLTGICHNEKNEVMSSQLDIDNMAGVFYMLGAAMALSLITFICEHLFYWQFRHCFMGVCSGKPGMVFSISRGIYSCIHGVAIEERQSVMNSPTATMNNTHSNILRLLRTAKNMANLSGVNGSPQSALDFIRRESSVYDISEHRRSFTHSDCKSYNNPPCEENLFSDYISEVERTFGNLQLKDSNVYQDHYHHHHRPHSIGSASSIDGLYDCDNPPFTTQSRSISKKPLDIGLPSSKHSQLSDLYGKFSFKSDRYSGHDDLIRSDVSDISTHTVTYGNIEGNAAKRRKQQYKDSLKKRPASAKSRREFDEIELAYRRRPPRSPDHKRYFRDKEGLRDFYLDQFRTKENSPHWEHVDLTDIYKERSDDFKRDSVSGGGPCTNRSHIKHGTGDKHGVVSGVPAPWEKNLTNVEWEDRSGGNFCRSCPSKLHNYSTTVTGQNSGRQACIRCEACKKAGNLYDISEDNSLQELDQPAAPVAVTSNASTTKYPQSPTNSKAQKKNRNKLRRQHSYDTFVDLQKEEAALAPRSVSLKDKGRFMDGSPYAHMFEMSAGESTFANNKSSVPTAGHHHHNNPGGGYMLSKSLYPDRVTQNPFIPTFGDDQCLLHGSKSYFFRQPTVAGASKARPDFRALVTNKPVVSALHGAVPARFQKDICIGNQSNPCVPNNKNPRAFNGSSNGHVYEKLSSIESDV
Assay: In vitro NMDA NR1/NR2B cell assay (FLIPR, intracellular calcium induced by glycine/glutamate)
Settings: HEK293 NR1/NR2B, 20 μM glycine / 1 μM glutamate, read-out: In vitro NR2B affinity, IC50
Measurement Kind: IC50 (nM)

Examples with their reported IC50 follow.
Molecule	Quantitative Result
CCNC(=O)[C@@H]1CN(Cc2cnc(Oc3ccc(F)cc3F)cn2)CCO1 [Example 30]	595
CNC(=O)[C@@H]1CN(Cc2cnc(Oc3ccc(C)cc3C)cn2)CCO1 [Example 4]	1200
CNC(=O)[C@@H]1CN(Cc2cnc(Oc3ccccc3Cl)cn2)CCO1 [Example 18]	222

[a] CNC(=O)[C@@H]1CN(Cc2cnc(Oc3ccc(F)cc3)cn2)CCO1 [Example 1]
[b] CNC(=O)[C@@H]1CN(Cc2cnc(Oc3ccc(C)cc3F)cn2)CCO1 [Example 2]
Prompt: Choose between a and b : whose measured IC50 value is numerically larger? I would appreciate it if you answered with the label of your choice.
Response: a

* * *

Molecular target: UniProt Q9UQD0
Experiment: Nav1.6 inhibition, IonWorks Quattro electrophysiology
Type: cell-based
Details: 5 μM; normalized to vehicle (0%) and maximal inhibition control (100%)
Measurement Kind: inhibition at 5 µM (%)

Structure As Smiles	Display Unit	inhibition at 5 µM
CNC(=O)[C@@H]1CN(Cc2cnc(Oc3ccc(C)cc3F)cn2)CCO1	%	-4

[a] CNC(=O)[C@@H]1CN(Cc2cnc(Oc3ccc(F)cc3F)cn2)CCO1
[b] CNC(=O)[C@@H]1CN(Cc2cnc(Oc3ccc(C)cc3)cn2)CCO1
[c] CNC(=O)[C@@H]1CN(Cc2cnc(Oc3ccc(Cl)cc3F)cn2)CCO1
[d] CCNC(=O)[C@@H]1CN(Cc2cnc(Oc3ccc(F)cc3F)cn2)CCO1
[e] CNC(=O)[C@@H]1CN(Cc2cnc(Oc3ccc(F)cc3)cn2)CCO1
Prompt: Order the records, beginning with the lowest inhibition at 5 µM and ending with the highest. Reply with the labels, ordered as the question asks.
Response: d, a, e, c, b

[P] CCNC(=O)[C@@H]1CN(Cc2cnc(Oc3ccc(C)cc3F)cn2)CCO1
[Q] CNC(=O)[C@@H]1CN(Cc2cnc(Oc3ccc(C)cc3C)cn2)CCO1
Prompt: Would you kindly point out which of P and Q has the smaller inhibition at 5 µM figure? I would appreciate it if you answered with the label of your choice.
Response: P

* * *

Target: Nav1.6 channel (Homo sapiens (Human), UniProt Q9UQD0)
Sequence (Q9UQD0 whole entry): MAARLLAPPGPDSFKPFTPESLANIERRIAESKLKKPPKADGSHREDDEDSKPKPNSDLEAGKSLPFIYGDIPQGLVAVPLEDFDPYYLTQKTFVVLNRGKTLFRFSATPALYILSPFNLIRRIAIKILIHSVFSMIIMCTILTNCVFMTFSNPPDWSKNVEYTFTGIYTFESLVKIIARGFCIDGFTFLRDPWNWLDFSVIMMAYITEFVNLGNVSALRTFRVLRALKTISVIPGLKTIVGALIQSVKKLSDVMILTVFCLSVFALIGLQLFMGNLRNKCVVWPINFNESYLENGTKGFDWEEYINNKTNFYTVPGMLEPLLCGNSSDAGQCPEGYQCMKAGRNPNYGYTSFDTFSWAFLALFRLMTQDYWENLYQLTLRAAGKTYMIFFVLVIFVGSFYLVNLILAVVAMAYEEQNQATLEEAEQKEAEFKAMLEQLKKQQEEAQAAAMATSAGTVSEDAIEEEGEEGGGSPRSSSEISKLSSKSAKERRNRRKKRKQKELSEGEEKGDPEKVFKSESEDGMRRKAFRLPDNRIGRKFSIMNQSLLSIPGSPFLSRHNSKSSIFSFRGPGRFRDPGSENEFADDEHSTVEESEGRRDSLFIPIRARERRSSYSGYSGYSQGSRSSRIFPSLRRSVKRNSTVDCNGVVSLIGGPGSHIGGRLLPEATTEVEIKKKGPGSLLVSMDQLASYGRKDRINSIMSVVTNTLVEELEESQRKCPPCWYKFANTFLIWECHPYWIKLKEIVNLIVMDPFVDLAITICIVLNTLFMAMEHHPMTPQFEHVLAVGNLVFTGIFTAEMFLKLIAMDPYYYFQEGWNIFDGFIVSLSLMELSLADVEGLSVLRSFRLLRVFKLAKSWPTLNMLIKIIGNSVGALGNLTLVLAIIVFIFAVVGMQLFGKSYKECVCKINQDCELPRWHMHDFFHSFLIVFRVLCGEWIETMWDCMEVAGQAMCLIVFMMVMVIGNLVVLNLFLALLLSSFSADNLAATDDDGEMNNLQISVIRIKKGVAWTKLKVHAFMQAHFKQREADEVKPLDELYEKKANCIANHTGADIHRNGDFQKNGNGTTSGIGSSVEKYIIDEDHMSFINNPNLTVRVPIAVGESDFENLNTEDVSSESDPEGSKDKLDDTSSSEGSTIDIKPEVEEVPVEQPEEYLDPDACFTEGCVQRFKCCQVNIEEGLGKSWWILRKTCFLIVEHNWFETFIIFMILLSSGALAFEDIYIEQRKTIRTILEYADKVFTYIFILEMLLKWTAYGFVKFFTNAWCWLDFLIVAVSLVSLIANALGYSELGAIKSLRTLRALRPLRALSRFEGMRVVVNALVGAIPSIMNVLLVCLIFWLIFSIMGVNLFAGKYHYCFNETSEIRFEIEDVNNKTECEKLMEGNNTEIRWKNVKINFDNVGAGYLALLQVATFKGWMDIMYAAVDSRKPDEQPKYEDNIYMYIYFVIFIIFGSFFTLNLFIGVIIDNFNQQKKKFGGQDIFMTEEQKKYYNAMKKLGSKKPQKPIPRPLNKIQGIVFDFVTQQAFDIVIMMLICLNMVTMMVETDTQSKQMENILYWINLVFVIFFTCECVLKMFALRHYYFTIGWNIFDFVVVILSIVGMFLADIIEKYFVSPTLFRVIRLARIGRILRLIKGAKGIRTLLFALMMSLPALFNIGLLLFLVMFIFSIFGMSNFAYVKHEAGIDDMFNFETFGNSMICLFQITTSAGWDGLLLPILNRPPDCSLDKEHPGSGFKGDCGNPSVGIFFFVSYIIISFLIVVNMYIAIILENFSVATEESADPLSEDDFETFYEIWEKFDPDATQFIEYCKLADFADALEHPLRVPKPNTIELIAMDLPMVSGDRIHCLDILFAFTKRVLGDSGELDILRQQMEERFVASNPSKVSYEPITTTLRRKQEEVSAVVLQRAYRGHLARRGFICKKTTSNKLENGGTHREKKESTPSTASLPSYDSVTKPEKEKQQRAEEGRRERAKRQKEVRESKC
Assay: Nav1.6 inhibition, IonWorks Quattro electrophysiology
Format: cell-based
Conditions: 1 μM; normalized to vehicle (0%) and maximal inhibition control (100%)
Measurement Kind: inhibition at 1 µM (%)

Structure As Smiles	Display Unit	Quantitative Result
CNC(=O)[C@@H]1CN(Cc2cnc(Oc3ccccc3Cl)cn2)CCO1	%	-5
CNC(=O)[C@@H]1CN(Cc2cnc(Oc3ccc(F)cc3)cn2)CCO1	%	-9
CNC(=O)[C@@H]1CN(Cc2cnc(Oc3ccc(F)cc3C)cn2)CCO1	%	3
CNC(=O)[C@@H]1CN(Cc2cnc(Oc3ccc(Cl)cc3)cn2)CCO1	%	-9
CNC(=O)[C@@H]1CN(Cc2cnc(Oc3ccc(C)cc3)cn2)CCO1	%	4.6
CNC(=O)[C@@H]1CN(Cc2cnc(Oc3ccc(Cl)cc3F)cn2)CCO1	%	-3.9

[P] CCNC(=O)[C@@H]1CN(Cc2cnc(Oc3ccccc3Cl)cn2)CCO1
[Q] CCNC(=O)[C@@H]1CN(Cc2cnc(Oc3ccc(C)cc3F)cn2)CCO1
Prompt: Choose between P and Q : whose measured inhibition at 1 µM value is numerically larger? I would appreciate it if you answered with the label of your choice.
Response: Q
